# SYSTEM TESTED: PDE2 (Bos taurus, UniProt P14099)
# PROTOCOL NOTES: Radioenzymatic phosphodiesterase assay: PDE2 inhibition
# Format: biochemical, bovine
# EXPERIMENTAL SETUP: read-out: PDE2 percentage of inhibition at 10 μM
# inhibition at 10 µM listing for each entry below
Don't forget the unit after the value.

COc1cc2c(cc1-c1ccccc1)C(c1ccc(C#Cc3ccccc3)cc1)=NCC(=O)N2C :: 45%

Asked: So what's the measured inhibition at 10 µM for this one? `COc1ccccc1-c1cc2c(cc1OC)N(C)C(=O)CN=C2c1cccc(C#N)c1`
Given back: 100%

Asked: Record request: inhibition at 10 µM value, item `COc1ccccc1-c1cc2c(cc1OC)N(Cc1ccccc1)C(=O)CN=C2c1cccc(C#N)c1`
Given back: 72%

Asked: Item under review: `COCC#Cc1ccc(C2=NCC(=O)N(C)c3cc(OC)c(-c4ccccc4)cc32)cc1` . Reported inhibition at 10 µM?
Given back: 80%

---

# SYSTEM TESTED: PDE2 (Bos taurus)
# Sequence (P14099 1-921): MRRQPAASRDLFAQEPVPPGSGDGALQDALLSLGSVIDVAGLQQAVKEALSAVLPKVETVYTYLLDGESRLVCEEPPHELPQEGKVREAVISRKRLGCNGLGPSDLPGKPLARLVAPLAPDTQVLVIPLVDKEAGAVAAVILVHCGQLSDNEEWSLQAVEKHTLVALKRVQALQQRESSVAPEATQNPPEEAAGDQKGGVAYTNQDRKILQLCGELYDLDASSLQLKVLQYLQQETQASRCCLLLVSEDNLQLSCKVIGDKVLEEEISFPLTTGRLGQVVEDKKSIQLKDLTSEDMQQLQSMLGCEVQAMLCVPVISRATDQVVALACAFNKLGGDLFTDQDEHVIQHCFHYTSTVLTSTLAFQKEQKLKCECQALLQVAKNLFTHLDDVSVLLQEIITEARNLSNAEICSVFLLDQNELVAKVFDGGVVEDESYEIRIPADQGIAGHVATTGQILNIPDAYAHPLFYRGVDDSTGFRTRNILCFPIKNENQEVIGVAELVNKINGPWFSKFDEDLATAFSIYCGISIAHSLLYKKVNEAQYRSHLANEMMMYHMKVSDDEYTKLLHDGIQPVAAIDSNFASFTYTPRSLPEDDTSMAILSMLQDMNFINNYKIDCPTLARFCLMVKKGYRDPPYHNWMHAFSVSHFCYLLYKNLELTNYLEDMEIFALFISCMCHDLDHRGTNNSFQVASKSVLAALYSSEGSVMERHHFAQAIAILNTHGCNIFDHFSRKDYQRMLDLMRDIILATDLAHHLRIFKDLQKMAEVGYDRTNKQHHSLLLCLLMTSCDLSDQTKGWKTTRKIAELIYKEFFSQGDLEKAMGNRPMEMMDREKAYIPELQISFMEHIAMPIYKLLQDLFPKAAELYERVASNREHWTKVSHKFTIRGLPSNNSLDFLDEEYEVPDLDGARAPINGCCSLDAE
# PROTOCOL NOTES: Radioenzymatic phosphodiesterase assay: PDE2 inhibition
# Assay type: biochemical, bovine
# EXPERIMENTAL SETUP: read-out: PDE2 percentage of inhibition at 10 μM
Reported inhibition at 10 µM values follow for various compounds
# output: bare number, implied unit %

Past entries and their recorded results:
COc1ccc(C2=NCC(=O)N(C)c3ccc(-c4c(OC)cccc4OC)cc32)cc1OC [Example 101] :: 99
CCCCC#Cc1cccc(C2=NCC(=O)N(C)c3cc(OC)c(-c4ccccc4)cc32)c1 [Example 66] :: 86
COc1cc2c(cc1-c1ccccc1)C(c1cccc(C#CCNC(=O)OC(C)(C)C)c1)=NCC(=O)N2C [Example 67] :: 60
COCC#Cc1cccc(C2=NCC(=O)N(C)c3cc(OC)c(-c4ccccc4)cc32)c1 [Example 95] :: 89
CN1C(=O)CN=C(c2cccc(C#N)c2)c2cc(-c3ccccc3Oc3ccccc3)ccc21 [Example 88] :: 89

Asked: If you can, please state the reported inhibition at 10 µM value of COc1ccccc1-c1cc2c(cc1OC)N(Cc1ccccc1)C(=O)CN=C2c1cccc(C(N)=O)c1 [Example 44] .
Given back: 88

Asked: Which inhibition at 10 µM reading was recorded for the compound CCCN1C(=O)CN=C(c2cccc(C(N)=O)c2)c2cc(-c3ccccc3OC)c(OC)cc21 [Example 45] ?
Given back: 48

Asked: Entry COc1cc2c(cc1-c1ccccc1Oc1ccccc1)C(c1cccc(C#N)c1)=NCC(=O)N2C [Example 90] has what inhibition at 10 µM?
Given back: 98

Asked: Reported inhibition at 10 µM, compound COc1ccc(C2=NCC(=O)N(C)c3ccc(-c4ccccc4)cc32)cc1 [Example 50] : ____
Given back: 95

Asked: I would be grateful if you could share the reported inhibition at 10 µM for COc1cc2c(cc1-c1ccccc1)C(c1ccc(CCCNC(=O)OC(C)(C)C)cc1)=NCC(=O)N2C [Example 107] .
Given back: 92

Asked: Returns the measured inhibition at 10 µM for the input compound. Input: COCCCc1ccc(C2=NCC(=O)N(C)c3cc(OC)c(-c4ccccc4)cc32)cc1 [Example 106]
Given back: 47

Asked: I am curious: what inhibition at 10 µM value has been reported for CCCCCCN1C(=O)CN=C(c2cccc(C(N)=O)c2)c2cc(-c3ccccc3OC)c(OC)cc21 [Example 47] ?
Given back: 59

Asked: Please give the measured inhibition at 10 µM for this compound: COc1cccc(OC)c1-c1ccc2c(c1)C(c1ccc(Cl)c(Cl)c1)=NCC(=O)N2C [Example 99]
Given back: 98

Asked: Entry under review: CN1C(=O)CN=C(c2cccc(C#N)c2)c2cc(-c3ccccc3)ccc21 [Example 11] . Reported inhibition at 10 µM?
Given back: 79

Asked: // query inhibition at 10 µM value for entry COc1cc2c(cc1-c1ccc(C#N)cc1)C(c1cccc(C#N)c1)=NCC(=O)N2C [Example 43]
Given back: 92

Asked: For the compound shown here, COc1cccc(OC)c1-c1ccc2c(c1)C(c1cccc(C)c1)=NCC(=O)N2C [Example 115] , give the reported inhibition at 10 µM.
Given back: 96

Asked: # inhibition at 10 µM lookup, item COc1ccc(C2=NCC(=O)N(C)c3cc(OC)c(-c4ccccc4OC)cc32)cc1 [Example 108]
Given back: 99

Asked: Reported inhibition at 10 µM, compound COc1cccc(OC)c1-c1ccc2c(c1)C(c1ccc(C)c([N+](=O)[O-])c1)=NCC(=O)N2C [Example 77] : ____
Given back: 99

Asked: If you can, please state the reported inhibition at 10 µM value of COc1cc2c(cc1-c1ccccc1OC(C)C)C(c1cccc(C(N)=O)c1)=NCC(=O)N2C [Example 78] .
Given back: 97

Asked: # query: inhibition at 10 µM of entry COc1cc2c(cc1-c1ccc(F)cc1)C(c1cccc(C#N)c1)=NCC(=O)N2C [Example 2]
Given back: 97

Asked: What inhibition at 10 µM value was documented for this compound, COc1cc2c(cc1-c1ccc(C(C)=O)cc1)C(c1cccc(C(N)=O)c1)=NCC(=O)N2C [Example 49] ?
Given back: 99

Asked: Query (compound): CN1C(=O)CN=C(c2cccc(C(N)=O)c2)c2cc(-c3ccccc3)c(Oc3ccccc3)cc21 [Example 72] ; field requested: inhibition at 10 µM
Given back: 28

Asked: Query (compound): COc1ccc(-c2ccc3c(c2)C(c2cccc(C#N)c2)=NCC(=O)N3C)c(OC)c1 [Example 17] ; field requested: inhibition at 10 µM
Given back: 98

Asked: # inhibition at 10 µM lookup, item CCCCCCN1C(=O)CN=C(c2cccc(C#N)c2)c2cc(-c3ccccc3OC)c(OC)cc21 [Example 35]
Given back: 39

Asked: Which inhibition at 10 µM value is on record for COc1cc2c(cc1-c1ccccc1)C(c1cccc(CCCCc3ccccc3)c1)=NCC(=O)N2C [Example 94] ?
Given back: 79

Asked: For the compound COc1ccc(C2=NCC(=O)N(C)c3cc(OC)c(-c4c(F)cccc4OC)cc32)cc1 [Example 111] , what inhibition at 10 µM is on record?
Given back: 99

Asked: inhibition at 10 µM lookup needed for COc1ccc(C2=NCC(=O)N(C)c3cc(OC)c(-c4ccccc4Oc4ccccc4)cc32)cc1 [Example 112] , thanks.
Given back: 99

Asked: Given the entry COc1ccccc1-c1cc2c(cc1OC)N(CCc1ccccc1)C(=O)CN=C2c1cccc(C(N)=O)c1 [Example 46] , report its measured inhibition at 10 µM.
Given back: 78

Asked: # query: inhibition at 10 µM of entry COc1cc2c(cc1-c1c(OC)cccc1OC)C(c1cccc(C#N)c1)=NCC(=O)N2C [Example 89]
Given back: 99

Asked: So what's the measured inhibition at 10 µM for this one? CN1C(=O)CN=C(c2cccc(C#N)c2)c2cc(-c3ccccc3Cl)c(Oc3ccccc3)cc21 [Example 71]
Given back: 82

Asked: Query: inhibition at 10 µM; subject: CN1C(=O)CN=C(c2cccc(C#N)c2)c2cc(-c3ccccc3)c(OC(F)(F)F)cc21 [Example 86]
Given back: 85

Asked: For CCCN1C(=O)CN=C(c2cccc(C#N)c2)c2cc(-c3ccccc3OC)c(OC)cc21 [Example 37] , what is its reported inhibition at 10 µM?
Given back: 45
